Here, each record is paired with measured z-score data.
Biological target: Homeobox protein Hox-A13 (Mus musculus) (UniProt Q62424)
Sequence (Q62424 whole entry, looked up): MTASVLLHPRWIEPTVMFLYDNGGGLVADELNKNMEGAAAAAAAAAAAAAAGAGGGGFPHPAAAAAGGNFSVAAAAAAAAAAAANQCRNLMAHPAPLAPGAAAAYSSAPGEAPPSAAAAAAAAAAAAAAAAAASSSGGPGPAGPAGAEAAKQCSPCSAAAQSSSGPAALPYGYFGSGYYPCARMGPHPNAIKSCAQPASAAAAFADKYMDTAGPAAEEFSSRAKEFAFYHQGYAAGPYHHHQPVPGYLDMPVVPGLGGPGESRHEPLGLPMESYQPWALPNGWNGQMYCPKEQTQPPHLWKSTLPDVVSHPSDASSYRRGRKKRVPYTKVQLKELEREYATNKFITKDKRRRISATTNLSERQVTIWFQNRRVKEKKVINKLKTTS
Assay: inhibitors of HoxA13-DNA binding, primary screen, biochemical, fluorescence polarization, labeled oligonucleotide (AID 1185)
Details: 15 min, higher = more signal, called active from +8 up or from −8 down
Calls of active or inactive are those of the source.

[
  {
    "Compound": "CCCCCN1CC=CC23O[C@@H]4/C=C\\CCCOC(=O)C4[C@H]2C(=O)N(CCO)[C@@H]3C1=O (stereo not given in full)",
    "System Tested": "Homeobox protein Hox-A13 (Mus musculus) (UniProt Q62424)",
    "z-score": "-3.77 (inactive)"
  },
  {
    "Compound": "C=C(COC)C(=O)CC[C@H](OC(C)=O)c1ccccc1OCCO",
    "System Tested": "Homeobox protein Hox-A13 (Mus musculus) (UniProt Q62424)",
    "z-score": "-3.78 (inactive)"
  },
  {
    "Compound": "C=C(COC)/C(=C/C[C@@H](OC(=O)c1ccncc1)c1ccccc1OCCO)c1cnc2ccccc2c1",
    "System Tested": "Homeobox protein Hox-A13 (Mus musculus) (UniProt Q62424)",
    "z-score": "-4.25 (inactive)"
  },
  {
    "Compound": "CN1C(=O)C2CC=C(C3=CCO[C@@H]3[C@H]3CCCN3S(=O)(=O)c3ccccc3[N+](=O)[O-])CC2C1=O (stereo not given in full)",
    "System Tested": "Homeobox protein Hox-A13 (Mus musculus) (UniProt Q62424)",
    "z-score": "-6.57 (inactive)"
  },
  {
    "Compound": "CCOC(=O)C[C@H]1[C@H](OC(=O)c2ccc(-c3ccccc3)cc2)[C@@H](NC(=O)C2CCCCC2)c2cc(OCCCO)ccc2N1C(=O)Cc1ccc(OC)cc1",
    "System Tested": "Homeobox protein Hox-A13 (Mus musculus) (UniProt Q62424)",
    "z-score": "-2.2 (inactive)"
  },
  {
    "Compound": "COC(=O)[C@@]1(Cc2ccc(F)cc2)[C@H]2c3cc(C(=O)N4CCCC4)n(C[C@H](O)CO)c3C[C@H]2CN1C(=O)c1ccccc1",
    "System Tested": "Homeobox protein Hox-A13 (Mus musculus) (UniProt Q62424)",
    "z-score": "-5.57 (inactive)"
  },
  {
    "Compound": "COc1ccc([Si](C)(C)[C@@H]2[C@@H](CC(=O)N3Cc4ccccc4C[C@H]3CO)O[C@]3(C(=O)N(Cc4ccc(I)cc4)c4ccccc43)[C@H]2C)cc1",
    "System Tested": "Homeobox protein Hox-A13 (Mus musculus) (UniProt Q62424)",
    "z-score": "-2.35 (inactive)"
  },
  {
    "Compound": "CC[C@H]1C2=C3C(CC[C@H]4C(OCc5ccc(F)cc5C(F)(F)F)OC[C@](C)([C@@H]34)N(C(=O)OC(C)(C)C)C2)C(COC(C)=O)C1COC(C)=O (stereo not given in full)",
    "System Tested": "Homeobox protein Hox-A13 (Mus musculus) (UniProt Q62424)",
    "z-score": "-3.07 (inactive)"
  },
  {
    "Compound": "C=CCN1C(=O)[C@@]2(O[C@@H](CCO)[C@H]([Si](C)(C)c3ccc(OC)cc3)[C@H]2C)c2cc(N3CCCCC3=O)ccc21",
    "System Tested": "Homeobox protein Hox-A13 (Mus musculus) (UniProt Q62424)",
    "z-score": "-6.02 (inactive)"
  },
  {
    "Compound": "CC1CC/C=C\\[C@H]2OC34C=CCN(C(C)C)C(=O)[C@H]3N(C(C)CO)C(=O)[C@@H]4C2C(=O)O1 (stereo not given in full)",
    "System Tested": "Homeobox protein Hox-A13 (Mus musculus) (UniProt Q62424)",
    "z-score": "-5.82 (inactive)"
  },
  {
    "Compound": "COc1ccc(C(O)C2C=CC3C(=O)N(c4ccccc4)C(=O)C3N2Nc2ccccc2F)c2ccccc12 (stereo not given)",
    "System Tested": "Homeobox protein Hox-A13 (Mus musculus) (UniProt Q62424)",
    "z-score": "-3.14 (inactive)"
  },
  {
    "Compound": "COc1ccc(C(=O)Nc2ccc(CN3C(=O)[C@]4(O[C@H](CC(=O)N(CCO)Cc5ccccc5)[C@@H]([Si](C)(C)c5ccc(OC)cc5)[C@@H]4C)c4ccccc43)cc2)cc1",
    "System Tested": "Homeobox protein Hox-A13 (Mus musculus) (UniProt Q62424)",
    "z-score": "-1.96 (inactive)"
  },
  {
    "Compound": "CC(C)c1ccc(NN2C(C(O)c3ccccc3)C=CC3C(=O)N(c4ccccc4)C(=O)C32)cc1 (stereo not given)",
    "System Tested": "Homeobox protein Hox-A13 (Mus musculus) (UniProt Q62424)",
    "z-score": "-1.36 (inactive)"
  },
  {
    "Compound": "C=CC[C@]1(C(=O)NCCN2CCOCC2)N=C(c2ccc(OCCCO)cc2)O[C@H]1c1ccccc1",
    "System Tested": "Homeobox protein Hox-A13 (Mus musculus) (UniProt Q62424)",
    "z-score": "-6.22 (inactive)"
  },
  {
    "Compound": "CN(C)CCCCCCNC(=O)[C@@H]1C[C@@H]2C(=O)N[C@@H](CCCC[N+](C)(C)C)C(=O)N2[C@@H]1c1cccc(OCCO)c1",
    "System Tested": "Homeobox protein Hox-A13 (Mus musculus) (UniProt Q62424)",
    "z-score": "-1.8 (inactive)"
  }
]
